target: KRAS Q61H (Homo sapiens (Human), UniProt P01116+P62937, Q61H); assay: Ras-Raf (BRAF RBD) disruption / FRET / MOA assay, KRAS Q61H; assay type: biochemical; settings: Ras-Raf disruption/FRET/MOA assay; class symbols; read-out: KRAS Q61H FRET data IC50
Sequence (P01116-2 other isoform, or with tags, fused parts or gaps Q61H): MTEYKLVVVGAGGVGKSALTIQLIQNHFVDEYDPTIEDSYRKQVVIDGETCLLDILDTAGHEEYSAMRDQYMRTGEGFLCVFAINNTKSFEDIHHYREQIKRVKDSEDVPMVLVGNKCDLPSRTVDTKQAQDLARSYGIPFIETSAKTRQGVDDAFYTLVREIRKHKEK
Sequence (P62937 whole entry): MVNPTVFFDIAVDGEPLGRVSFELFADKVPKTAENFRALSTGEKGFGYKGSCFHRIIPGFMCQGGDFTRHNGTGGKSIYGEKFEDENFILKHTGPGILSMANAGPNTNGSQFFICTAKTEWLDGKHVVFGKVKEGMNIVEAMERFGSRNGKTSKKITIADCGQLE
result type: IC50

Examples with answers:
{"columns": ["molecule", "IC50"],
 "data": [
  ["C=CC(=O)N1CC2(CCN2C(=O)N(C)[C@H](C(=O)N[C@H]2Cc3cccc(c3)-c3ccc4c(c3)c(c(-c3cccnc3[C@H](C)OC)n4CC)CC(C)(C)COC(=O)[C@@H]3CCCN(N3)C2=O)C(C)C)C1 (atropisomer, axis not shown)", "10 to 100 nM"],
  ["CCn1c(-c2cccnc2[C@H](C)OC)c2c3cc(ccc31)N1CCC[C@@H](C[C@H](NC(=O)[C@@H](COC3CN(C(=O)C#CC(C)(C)N(C)C)C3)C(C)C)C(=O)N3CCC[C@H](N3)C(=O)OCC(C)(C)C2)C1 (atropisomer, axis not shown)", "> 10000 nM"],
  ["CO[C@@H](C)c1ncccc1-c1c2c3cc(ccc3n1CC(F)(F)F)-c1cccc(c1)C[C@H](NC(=O)[C@H](C(C)C)N(C)C(=O)[C@H]1CCN(C(=O)C#CC(C)(C)N(C)C)C1)C(=O)N1CCC[C@H](N1)C(=O)OCC(C)(C)C2 (atropisomer, axis not shown)", "1000 to 10000 nM"],
  ["C=CC(=O)N1CC[C@H](C(=O)N(C)[C@H](C(=O)N[C@H]2Cc3cc(sn3)-c3ccc4c(c3)c(c(-c3cccnc3[C@H](C)OC)n4CC)CC(C)(C)COC(=O)[C@@H]3CCCN(N3)C2=O)C(C)C)C1 (atropisomer, axis not shown)", "100 to 1000 nM"],
  ["C=CC(=O)N1CC[C@H](C(=O)N(C)[C@H](C(=O)N[C@H]2CC3=NN=C(S3)c3ccc4c(c3)c(c(-c3cccnc3[C@H](C)OC)n4CC)CC(C)(C)COC(=O)[C@@H]3CCCN(N3)C2=O)C(C)C)C1 (atropisomer, axis not shown)", "> 10000 nM"]
]}

Input: What measured IC50 goes with C=CC(=O)N1CCO[C@@H]2CN(C(=O)N(C)[C@H](C(=O)N[C@H]3Cc4nc(cs4)-c4ccc5c(c4)c(c(-c4cccnc4[C@H](C)OC)n5CC)CC(C)(C)COC(=O)[C@@H]4CCCN(N4)C3=O)C(C)C)C[C@@H]21 (atropisomer, axis not shown) ?
Output: 100 to 1000 nM
